system: NCI-H226 lung; test: NCI tumour cell line growth inhibition, 48 h

# compound, experimental system, TGI
rows = [
    ("COc1ccccc1NC(=O)C1=C(C)NC(C)=C(C(=O)Nc2ccccc2OC)C1C1=CC=COC1", "NCI-H226 lung", "> 100 µM"),
    ("O=C(C=C1SCCS1)/C=C\\c1ccc(Cl)cc1", "NCI-H226 lung", "> 100 µM"),
    ("Nc1c(C(=O)c2ccc(-c3cccnc3)cc2)cnn1-c1ccc(F)cc1", "NCI-H226 lung", "> 25 µM"),
    ("Cc1cc(=O)[nH]c(N/N=C/c2cc(Br)ccc2O)n1", "NCI-H226 lung", "> 100 µM"),
    ("O=C1C(Cl)=C(Sc2nnc3c4ccccc4c4ccccc4c3n2)C(=O)c2ccccc21", "NCI-H226 lung", "40.9 µM"),
    ("CC(C)(C)N1CCC1CN (configuration not stated)", "NCI-H226 lung", "> 100 µM"),
    ("CCN(CC)CCNc1ccc(C)c2sc3cc(Cl)ccc3c(=O)c12", "NCI-H226 lung", "3.58 µM"),
    ("Cc1ccc(S(=O)(=O)c2ccc(NC(=O)SCCC(=O)O)cc2)cc1", "NCI-H226 lung", "> 100 µM"),
    ("COc1cc2nccc(Oc3ccc(NC(=O)NC4CC4)c(Cl)c3)c2cc1C(N)=O", "NCI-H226 lung", "> 43.4 µM"),
    ("CN(C)CCCC1c2ccccc2Oc2ccc(C(F)(F)F)cc21 (configuration not stated)", "NCI-H226 lung", "23.1 µM"),
    ("CN(C)c1ccc(/C=C/c2ccnc3c(O)cccc23)cc1", "NCI-H226 lung", "> 26.8 µM"),
    ("Cc1ccc(/C=N/n2c(Cc3ccccc3)n[nH]c2=O)cc1", "NCI-H226 lung", "> 100 µM"),
    ("CC(=O)OC1CC2CCN3C(=O)c4cc5c(cc4[C@H](C1OC(C)=O)C23)OCO5 (some centres not stated)", "NCI-H226 lung", "> 100 µM"),
    ("FC(F)(F)c1ccc(Cc2nc3cc4ccccc4cc3[nH]2)cc1", "NCI-H226 lung", "> 100 µM"),
    ("CSc1ccc(-c2ccccc(=O)c2O)cc1", "NCI-H226 lung", "37 µM"),
    ("COc1c(O)c(OC)c2oc(-c3ccc(O)c(O)c3)c(OC)c(=O)c2c1O", "NCI-H226 lung", "> 100 µM"),
    ("COc1c(C)cc(O)cc1C=O", "NCI-H226 lung", "> 100 µM"),
    ("CC[C@@H]1[C@@H](C)O[C@@](O)([C@@H](C)[C@H](O)[C@H](C)[C@H]2OC(=O)/C=C/C=C/[C@H](C)[C@@H]([C@@H](C)[C@@H](O)[C@H](C)[C@@]3(O)C[C@@H](O[C@H]4C[C@@H](O)[C@H](O)C(C)O4)[C@H](CC)[C@@H](C)O3)OC(=O)/C=C/C=C/[C@@H]2C)C[C@H]1O[C@@H]1C[C@@H](O)[C@H](O)C(C)O1 (some centres not stated)", "NCI-H226 lung", "0.139 µM"),
    ("Cc1sc2[nH]c(=O)oc(=O)c2c1C", "NCI-H226 lung", "> 100 µM"),
    ("N#Cc1cnc(-n2[nH]c3c(c2=O)CCCC3)[nH]c1=O", "NCI-H226 lung", "> 100 µM"),
    ("O=C1/C(=C\\c2ccc(F)cc2)CN(C(=O)c2ccccc2)C/C1=C\\c1ccc(F)cc1", "NCI-H226 lung", "> 100 µM"),
    ("COC1=CC(c2ccc[nH]2)=N/C1=C\\c1[nH]c(C)c(CC(=O)OCc2ccccc2)c1CCC(=O)OCc1ccccc1", "NCI-H226 lung", "2.3 µM"),
]
